The following compounds were reported with Ki values on Carbonic anhydrase 2 (Homo sapiens, UniProt P00918) in different studies.

QUERY: Report the value of Ki obtained on Carbonic anhydrase 2 (Homo sapiens, UniProt P00918) for COC(=O)C1=Cc2ccc(Cl)cc2OC(=O)C1 .
RESULT: > 100 µM

QUERY: Please report Ki with Carbonic anhydrase 2 (Homo sapiens, UniProt P00918) for item NS(=O)(=O)c1ccc(OCCCO[N+](=O)[O-])cc1 .
RESULT: 0.088 µM

QUERY: Give Ki for this entry on Carbonic anhydrase 2 (Homo sapiens, UniProt P00918): CCOc1ccc(S(=O)(=O)NC[C@H](C)O)cc1-c1nnc2c(n1)c(C)nn2-c1ccc(C)cc1
RESULT: > 50 µM

---

Here, molecules appear alongside Ki reported for Carbonic anhydrase 2 (Homo sapiens) in the literature.
Give just the number in nM; leave the unit off.

Molecule | System | Ki, nM
O=S(=O)(NO)C(F)(F)F | Carbonic anhydrase 2 (Homo sapiens) | 30
N#CCCN(CCc1ccccc1)CC(=O)N(CCc1ccc(S(N)(=O)=O)cc1)Cc1ccc(F)cc1 | Carbonic anhydrase 2 (Homo sapiens) | 133
CCCCC(NOCc1ccccc1)C(=O)NO (configuration not stated) | Carbonic anhydrase 2 (Homo sapiens) | 7800
Cc1nn(-c2ccc(S(N)(=O)=O)cc2)c(=O)c2ccccc12 | Carbonic anhydrase 2 (Homo sapiens) | 0.03
NS(=O)(=O)c1ccc(NC(=O)c2nn(-c3cccc(/N=N/c4c(O)ccc5ccccc45)c3)c(-c3ccccc3)c2C(=O)O)cc1 | Carbonic anhydrase 2 (Homo sapiens) | 12.4

QUERY: Print Carbonic anhydrase 2 (Homo sapiens) Ki for NS(=O)(=O)c1ccc2nc(NC(=O)CSC(=S)N3CCN(c4ccccc4)CC3)sc2c1 .
RESULT: 91.4

QUERY: Retrieve Ki on Carbonic anhydrase 2 (Homo sapiens); query NS(=O)(=O)OC[C@H]1O[C@H](OC[C@H]2[C@H](O)[C@@H](O)[C@H](O)O[C@@H]2CO)[C@H](O)[C@@H](O)[C@@H]1O
RESULT: 11.3

QUERY: Identify measured Ki obtained with Carbonic anhydrase 2 (Homo sapiens) for NS(=O)(=O)c1ccc(CCN(Cc2ccccc2)C(=O)CN(Cc2ccccc2)Cc2ccccc2)cc1 .
RESULT: 412

QUERY: Identify measured Ki obtained with Carbonic anhydrase 2 (Homo sapiens) for Cc1nn(C)c2nnc(Nc3ccc(S(=O)(=O)NCCN4CCOCC4)cc3)nc12 .
RESULT: 719

QUERY: Report Ki from Carbonic anhydrase 2 (Homo sapiens) testing of NS(=O)(=O)c1ccc(-c2cccc(-c3ccc(S(N)(=O)=O)cc3)c2)cc1
RESULT: 397

QUERY: Name the value of Ki reported for NS(=O)(=O)c1ccc(C(=O)c2cccc(C(=O)O)n2)c(F)c1 when tested on Carbonic anhydrase 2 (Homo sapiens).
RESULT: 10

---

Collected Ki for Carbonic anhydrase 2 (Homo sapiens) across several studies; compounds listed below.
For each record, check the reported Ki: if it is below 300 nM write Yes, else write No.

Compound | Group Label
NS(=O)(=O)c1ccc(NC(=O)CSC(=S)N2CCN(c3ccc(F)c(Cl)c3)CC2)cc1 | No
COc1cc2c(cc1OS(N)(=O)=O)CCN(Cc1cc(OC)c(OC)c(OC)c1)C2 | No

QUERY: Below 300 nM on Ki? Entry O=C(Nc1ccc(I)cc1C(=O)O)c1ccc2c(c1)C(=O)OC2=O
RESULT: No

QUERY: Lab log: compare recorded Ki with 300 nM; is it strictly lower for CC(=O)c1ccc(NC(=O)N/C=C/C=C/c2ccc3c(c2)OCO3)cc1 ?
RESULT: No

QUERY: Does the reported Ki of NS(=O)(=O)c1ccc(NC(=O)Nc2c(F)c(F)c(F)c(F)c2F)c(Br)c1 stay below 300 nM?
RESULT: Yes

QUERY: Consider the compound CC(C)(C)n1c(=O)cc(-c2cccs2)[s+]1[O-] (stereo unspecified) . Is its Ki strictly less than 300 nM?
RESULT: No

QUERY: Report whether reported Ki is lower than 300 nM (strictly) for NS(=O)(=O)c1ccc(N2N=C(c3ccccc3)CCC2=O)cc1
RESULT: Yes

QUERY: Problem: For the compound CC1=NNC(=O)/C1=N/Nc1ccc(S(N)(=O)=O)cc1 , is Ki under 300 nM?
RESULT: Yes

QUERY: Just wondering, is Ki of Cc1ccc(NC(=O)c2ccc3c(c2)C(=O)OC3=O)c(C(=O)O)c1 below 300 nM?
RESULT: No

---

UniProt P00918 pKi, compiled from various sources.
Worth noting: pKi values are minus log10 of concentrations stated in mol/L.

Reference set, count: 4
Item Smiles | Result Type | Reported
O=C(O)c1ccccc1S(=O)(=O)NO | pKi | 9.05
CCOC(=O)/C(O)=C/C(=O)/C=C/c1ccc(NC(=O)c2ccc3ccccc3c2)cc1 | pKi | 5.02
CCCCCCCCCCCCCCCCOS(N)(=O)=O | pKi | 7.01
O=C(O)c1ccc(-n2cc(COc3ccc4ccc(=O)oc4c3)nn2)cc1 | pKi | 7.00

QUERY: Consider the compound NCCCN(CCc1ccccc1)CC(=O)N(CCc1ccc(S(N)(=O)=O)cc1)Cc1ccc(F)cc1 tested on UniProt P00918; state its pKi.
RESULT: 7.52

QUERY: Write down the reported pKi (system: UniProt P00918) of NS(=O)(=O)c1ccc(-n2ncc(NCc3ccccc3)c(Cl)c2=O)cc1
RESULT: 10.05

QUERY: Enter measured pKi, system UniProt P00918, for the compound shown: NS(=O)(=O)c1ccc(N/C(S)=N\CC(=O)O)cc1
RESULT: 7.70

---

Multiple publications report Ki for Carbonic anhydrase 2 (Homo sapiens); what follows is a combined list.

Would you please look over these solved cases?
Item Smiles | Result Type | Reported
CC(=O)c1c(O)ccc2ccc(=O)oc12 | Ki | > 100 µM
COc1cc2c(=O)oc3c(OC)c(OC)cc4c(=O)oc(c1O)c2c34 | Ki | > 100 µM

Okay, next one:
QUERY: For O=S1(=O)C=Cc2cc(-c3cccc(C(F)(F)F)c3)ccc2O1 , write its Ki.
RESULT: > 10 µM

---

Endpoint summary: Ki, system: Carbonic anhydrase 2 (Homo sapiens, UniProt P00918), multiple sources combined.

Item Smiles | Result Type | Reported
CCCN(CCC)S(=O)(=O)c1ccc(C(=O)NCC)cc1 | Ki | > 10 µM
O=C(NNC(=S)NCc1ccccc1)c1ccccc1O | Ki | > 10 µM
Cc1nn(-c2ccccc2)c2c1c(=O)oc1ccc(NCc3ccccc3)cc12 | Ki | > 10 µM

--- query ---
QUERY: Provide measured Ki value, entry: O=S(=O)(NC1CC1)NC1CC1
RESULT: > 200 µM

---

Ki for UniProtKB P00918 - collated from the literature.

Item Smiles | Reported
O=C1c2ccccc2C(=O)N1CN1C(=O)c2ccccc2S1(=O)=O | > 50 µM
CCn1cc(S(N)(=O)=O)c2cc(NC(=O)c3cc(-c4ccccc4)nc4ccccc34)ccc21 | > 100 µM
COc1ccc(C(=O)CSc2nc(Nc3cccc(S(N)(=O)=O)c3)cc(-c3ccccc3)n2)cc1 | > 20 µM
Cc1cccc(-c2cc(=O)oc3cc(O)ccc23)c1 | > 10 µM
CC(=O)Oc1cc2ccc(=O)oc2cc1OC(C)=O | > 10 µM
CCn1cc(S(N)(=O)=O)c2cc(NC(=O)c3cc(-c4ccc(OC)c(OC)c4)nc4ccccc34)ccc21 | > 100 µM

Lab note: next compound to report on.
QUERY: In one line, give reported Ki of the entry O=C(/C=C/c1ccc(O)cc1)OCc1ccccc1 .
RESULT: > 50 µM

---

Please find below Ki data on Carbonic anhydrase 2 (Homo sapiens) compiled from the literature.

Molecule | Result Type | Reported
Cc1c2c(=O)oc3ccc(Br)cc3c2nn1-c1ccccc1 | Ki | > 10 µM
Cc1ccc(NC(=S)NNC(=O)c2ccccc2O)cc1 | Ki | > 10 µM
CCOc1ccc(S(=O)(=O)N2CCN(C)CC2)cc1-c1nnc2c(n1)c(C)nn2-c1ccc(C)cc1 | Ki | > 50 µM
CCOc1ccc(S(=O)(=O)N(CC)CC)cc1-c1nnc2c(n1)c(C)nn2C | Ki | > 10 µM
CCOc1ccc(S(=O)(=O)N2CCN(C)CC2)cc1-c1nnc2c(n1)c(C)nn2C | Ki | > 10 µM
S=c1ccc2ccc(OCc3cn(-c4ccccc4)nn3)cc2o1 | Ki | > 100 µM

Then there is this molecule:
QUERY: Retrieve Ki on Carbonic anhydrase 2 (Homo sapiens); query Nc1nc(-c2ccc(NC(=O)CCC(=O)O)cc2)cn2c(=O)n(-c3ccccc3)nc12
RESULT: > 100 µM

---

Header: Ki / UniProt:P00918 / multiple publications

Known Ki results, listed for orientation:
Item Smiles | Reported
CCOc1ccc(S(=O)(=O)NCCN2CCOCC2)cc1-c1nnc2c(n1)c(C)nn2C | > 10 µM
O=C(N/C=C/C=C/c1ccc2c(c1)OCO2)Nc1ccc(S(=O)(=O)Nc2nccs2)cc1 | > 100 µM
Cc1cc2nn(-c3ccccc3)c(C)c2c(=O)o1 | > 10 µM
CC(C)(C)c1ccc(-c2ccc3c(c2)C=CS(=O)(=O)O3)cc1 | > 10 µM
CC(=O)c1cc2cc([N+](=O)[O-])c(Cl)cc2oc1=O | > 10 µM

QUERY: Enter recorded Ki with UniProt:P00918 for COc1ccc(-c2ccc3c(c2)C=CS(=O)(=O)O3)cc1 here.
RESULT: > 10 µM
